biological target: T1, biotinylated recombinant BH3-tagged hIL-2 (human, UniProt P60568 21-153, biotinylated with BirA enzyme (on the tag)); test: SPR (Biacore T100), biotinylated hIL-2 immobilised on an SA chip, soluble CD25 flowed over
T1 construct: Secreted by Hi5 insect cells and immobilized on an SA sensor chip for SPR; also called biotinylated human IL-2; biotinylated IL-2; not shown: BH3 tag
T1 sequence (P60568 21-153): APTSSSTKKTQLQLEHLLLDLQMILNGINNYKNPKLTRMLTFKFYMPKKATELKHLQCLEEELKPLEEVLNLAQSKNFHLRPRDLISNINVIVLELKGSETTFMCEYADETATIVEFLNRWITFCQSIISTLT
Quick list: pKd per entry.
# log scale: pKd equals minus log10 of the concentration in mol/L

# binder, measured_property, reading
records = [
    ("WT (receptor, also called WT hCD25; wild-type human CD25) CD25 (IL-2Rα) chain: ELCDDDPPEIPHATFKAMAYKEGTMLNCECKRGFRRIKSGSLYMLCTGNSSHSSWDNQCQCTSSATRNTTKQVTPQPEEQKERKTTEMQSPMQPVDQASLPGHCREPPPWENEATERIYHFVVGQMVYYQCVQGYRALHRGPAESVCKMTHGKTRWTQPQLICTGEMETSQFPGEEKPQASPEGRPESETSCLVTTTDFQIQTEMAATMETSIFTTE", "pKd", 8.70),
    ("B5 (receptor, also called B5 hCD25) CD25 (IL-2Rα) chain: ELCDDDPPEIPHATFKAMAYKEGTILVCDCKRGFRRIKSGSAYMLCTGNSSHSSWDNQCQCTSSATRNTTKQVTPQPEEQKERKTTEMQSPMQPVDQASLPGHCREPPPWENEATERRYWFVVGQMVYYQCVQGYRALHRGPAESVCKMTHGQTRWTQPQLICTGEMETSQFPGEEKPQASPEGRPESETSCLVTTTDFQIQTEMAATMETSIFTTE", "pKd", 10.34),
    ("F5 (receptor, also called F5 hCD25) CD25 (IL-2Rα) chain: ELCDDDPPEIPHATFKAMAYKEGTLLVCECKRGFRRIKSGSAYMLCTGNSSHSSWDNQCQCTSSATRNTTKQVTPQPEEQKERKTTEMQSPMQPVDQASLPGHCREPPPWENEATERNYMFVVGQMVYYQCVQGYRALHRGPAESVCKMTHGGTRWTQPQLICTGEMETSQFPGEEKPQASPEGRPESETSCLVTTTDFQIQTEMAATMETSIFTTE", "pKd", 10.07),
]

Now examine the next entry.
Give reported pKd value for E8 (receptor, also called E8 hCD25) CD25 (IL-2Rα) chain: EQCDDDPPEIPHATFKAMAYKEGTVLYCECKRGFRRIKSGSAYMLCTGNSSHSSWDNQCQCTSSATRNTTKQVTPQPEEQKERKTTEMQSPMQPVDQASLPGHCREPPPWENEATERRYWFVVGQMVYYQCVQGYRALHRGPAESVCKMTHGKTRWTQPQLICTGEMETSQFPGEEKPQASPEGRPESETSCLVTTTDFQIQTEMAATMETSIFTTE
10.35
